# Test system: HL-60/adr (doxorubicin-resistant, MRP-1 overexpression)
# procedure.summary: Cytotoxicity, trypan blue exclusion assay, 24 h
# Type: cell-based
# run.parameters: Homo sapiens, HL60/ADR; Table 2; trypan blue, 24 h; M ± SD; read-out: LC50 Values of Compounds for Cell Line, HL-60/adr
endpoint.name: CC50 (µM)

compound: CN(C)c1nc2c(Br)c(Br)c(Br)c(Br)c2n1CCCCCCC(=O)NO [Compound 11c]
value.reported: 10.6

compound: CN(C)c1nc2c(Br)c(Br)c(Br)c(Br)c2n1Cc1ccc(C(=O)NO)cc1 [Compound 19]
value.reported: 32.3

compound: O=C(NO)c1ccc(Cn2nc3c(Br)c(Br)c(Br)c(Br)c3n2)cc1 [Compound 15a]
value.reported: 32.4

compound: CN(C)c1nc2c(Br)c(Br)c(Br)c(Br)c2n1CCc1cn(CCC(=O)NO)nn1 [Compound 7c]
value.reported: 18.6

compound: CN(C)c1nc2c(Br)c(Br)c(Br)c(Br)c2n1CCCCCCCC(=O)NO [Compound 11d]
value.reported: 8.4

compound: CN(C)c1nc2c(Br)c(Br)c(Br)c(Br)c2n1CCCCCC(=O)NO [Compound 11b]
value.reported: 16.2

---

# target: HDAC6 (Homo sapiens, UniProt Q9UBN7)
# Sequence (Q9UBN7 1-1215): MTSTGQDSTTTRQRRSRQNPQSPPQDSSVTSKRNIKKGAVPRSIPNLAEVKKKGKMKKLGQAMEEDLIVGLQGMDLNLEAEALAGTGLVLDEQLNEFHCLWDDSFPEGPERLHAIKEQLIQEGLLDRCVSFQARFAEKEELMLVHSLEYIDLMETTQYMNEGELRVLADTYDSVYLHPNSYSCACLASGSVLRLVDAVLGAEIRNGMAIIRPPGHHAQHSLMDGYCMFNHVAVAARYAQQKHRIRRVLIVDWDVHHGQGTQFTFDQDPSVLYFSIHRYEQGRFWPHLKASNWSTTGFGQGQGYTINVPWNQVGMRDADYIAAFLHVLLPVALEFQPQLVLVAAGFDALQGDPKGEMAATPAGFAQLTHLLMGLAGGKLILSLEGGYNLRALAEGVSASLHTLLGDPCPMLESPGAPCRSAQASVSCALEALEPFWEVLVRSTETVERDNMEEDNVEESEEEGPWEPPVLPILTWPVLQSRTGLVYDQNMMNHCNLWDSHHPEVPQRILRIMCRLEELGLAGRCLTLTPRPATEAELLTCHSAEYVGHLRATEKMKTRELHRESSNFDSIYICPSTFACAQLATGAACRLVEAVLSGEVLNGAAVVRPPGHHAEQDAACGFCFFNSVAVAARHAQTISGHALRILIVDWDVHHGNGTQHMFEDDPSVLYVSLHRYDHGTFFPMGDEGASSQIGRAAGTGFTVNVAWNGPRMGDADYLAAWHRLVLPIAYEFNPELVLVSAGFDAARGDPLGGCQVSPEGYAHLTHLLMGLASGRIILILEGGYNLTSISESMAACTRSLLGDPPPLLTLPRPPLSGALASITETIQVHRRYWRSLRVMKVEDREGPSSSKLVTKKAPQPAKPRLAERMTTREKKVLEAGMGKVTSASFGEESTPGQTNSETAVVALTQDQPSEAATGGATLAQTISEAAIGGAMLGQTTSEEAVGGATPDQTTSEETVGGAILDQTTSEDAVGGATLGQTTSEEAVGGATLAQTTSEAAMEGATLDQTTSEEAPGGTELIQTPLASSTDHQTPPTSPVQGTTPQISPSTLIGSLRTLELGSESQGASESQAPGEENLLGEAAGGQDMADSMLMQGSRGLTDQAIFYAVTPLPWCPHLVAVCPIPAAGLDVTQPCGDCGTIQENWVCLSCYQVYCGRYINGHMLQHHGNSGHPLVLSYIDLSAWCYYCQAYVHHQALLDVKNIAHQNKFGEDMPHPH
Reported IC50 is given for each of the following compounds.
endpoint.name: IC50 (µM)

compound: CN(C)c1nc2c(Br)c(Br)c(Br)c(Br)c2n1CCc1cn(CCC(=O)NO)nn1
unit.text: µM
value.reported: 30.7
--
compound: CN(C)c1nc2c(Br)c(Br)c(Br)c(Br)c2n1CCCCCCC(=O)NO [Compound 11c]
unit.text: µM
value.reported: 1.13
--
compound: CN(C)c1nc2c(Br)c(Br)c(Br)c(Br)c2n1CCCCCCCC(=O)NO [Compound 11d]
unit.text: µM
value.reported: 8.98
--
compound: O=C(NO)c1ccc(Cn2nc3c(Br)c(Br)c(Br)c(Br)c3n2)cc1 [Compound 15a]
unit.text: µM
value.reported: 11
